Test system: MOLT-4
RUN_DESCRIPTION: NCI tumour cell line growth inhibition, 48 h
The source made the active and inactive calls. Rule as the data show it: active = GI50 up to about 1.1 µM and inactive = higher. Residues, ends and D or L forms follow the SMILES beside them. *: point of attachment. Bn = c1ccc(C*)cc1
Outcomes: true = active, false = inactive

- MOLECULE: "COc1cc(-c2nn3c(=O)n(-c4ccc(Cl)cc4)c(=O)nc3s2)cc(OC)c1OC"
  ANSWER_LABEL: "false"
- MOLECULE: "Cn1c(=O)cc(NCCc2ccccc2)[nH]c1=O"
  ANSWER_LABEL: "false"
- MOLECULE: "O=C(Nc1nnc(-c2ccccc2)o1)C(SC(=S)N1CCCC1)c1ccccc1 (stereo not drawn)"
  ANSWER_LABEL: "false"
- MOLECULE: "Cn1c(=O)ccc2cc(C(=O)c3ccccc3)ccc21"
  ANSWER_LABEL: "false"
- MOLECULE: "CCOC(=O)C1=C(C)N(Cc2ccccc2)C2(O)C=CC(O)=C3C(=O)c4ccccc4C(=O)C312 (stereo not drawn)"
  ANSWER_LABEL: "false"
- MOLECULE: "CN1CCN(CCn2c3c4ccccc4ccc3c3oc(=O)c4ccccc4c32)CC1"
  ANSWER_LABEL: "false"
- MOLECULE: "C[C@@H](CO)OCOCc1ccccc1"
  ANSWER_LABEL: "false"
- MOLECULE: "O=C(NCC(O)COc1ccccc1)c1ccccc1O (stereo not drawn)"
  ANSWER_LABEL: "false"
- MOLECULE: "COC(=O)C(CC(C)C)NC(=O)C(N)Cc1ccc(OCc2ccccc2)cc1 (stereo not drawn) (H-Tyr(Bn)-Leu-OMe; configuration not given here)"
  ANSWER_LABEL: "false"
- MOLECULE: "CCOc1ccccc1Nc1nc(C)c(C(=O)CC(=O)C(=O)Nc2ccccc2)s1"
  ANSWER_LABEL: "false"
- MOLECULE: "O=C(O)c1cc2ccccc2c(/N=N/c2ccc(S(=O)(=O)Nc3ccccn3)cc2)c1O"
  ANSWER_LABEL: "false"
- MOLECULE: "CC(O)c1cc2c(s1)C(=O)c1scc(C(C)O)c1C2=O (stereo not drawn)"
  ANSWER_LABEL: "true"
- MOLECULE: "C[C@@H]1CCC[C@]2(C)O[C@H]2CC[C@@](C)(O)[C@@H]2CC3=C(CO)C(=O)O[C@H]3[C@H]1O2"
  ANSWER_LABEL: "false"
- MOLECULE: "Cc1ccccc1-c1nc2c(C(=O)NCCN(C)C)cccc2[nH]1"
  ANSWER_LABEL: "false"
- MOLECULE: "Cn1cnc([N+](=O)[O-])c1Sc1nnnn1-c1ccccc1"
  ANSWER_LABEL: "false"
- MOLECULE: "CCOC(=O)c1c(C)[nH]c2c1c(CN(C)C)c(O)c1nc(C)c(C)nc12"
  ANSWER_LABEL: "false"
- MOLECULE: "O=C1/C(=C\\c2ccc([N+](=O)[O-])cc2)N(S(=O)(=O)c2ccccc2)c2ncccc21"
  ANSWER_LABEL: "false"
- MOLECULE: "S=C(S)NCNC(=S)S"
  ANSWER_LABEL: "false"
- MOLECULE: "CNC(=O)CCNC(=O)CCC(=O)OC"
  ANSWER_LABEL: "false"
- MOLECULE: "Oc1cccc2c1NC1=C(CCC/C1=C\\c1ccccc1)C2"
  ANSWER_LABEL: "false"
- MOLECULE: "O=C(CSCC(=O)N/N=C/c1cccc(OCc2ccccc2)c1)N/N=C/c1cccc(OCc2ccccc2)c1"
  ANSWER_LABEL: "false"
- MOLECULE: "Nc1ccccc1N/C(=C\\C(=O)C(Cl)(Cl)Cl)c1ccccc1"
  ANSWER_LABEL: "false"
- MOLECULE: "COc1cc2c(cc1OC)C(=O)N(c1ccc(OCCN3CCCC3)cc1)C2=O"
  ANSWER_LABEL: "false"
- MOLECULE: "CSC(=N)N1N=C2c3ccccc3CC[C@@H]2[C@@H]1c1ccccc1"
  ANSWER_LABEL: "false"
- MOLECULE: "O=C(/C=C(\\C(=O)c1cccs1)c1cccs1)c1ccc(C(=O)/C=C(\\C(=O)c2cccs2)c2cccs2)cc1"
  ANSWER_LABEL: "false"
- MOLECULE: "CCCC1c2c(ccc3ccccc23)Oc2ccc3ccccc3c21"
  ANSWER_LABEL: "false"
- MOLECULE: "COc1cc2c(cc1Oc1ccc(OC)c3c1CC1c4c(cc(OC)c(OC)c4-3)CCN1C)CC1c3c(cc(OC)c(OC)c3-2)CCN1C (stereo not drawn)"
  ANSWER_LABEL: "false"
- MOLECULE: "O=[N+]([O-])c1ccc2c(c1)Nc1c3ccccc3nc3cccc-2c13"
  ANSWER_LABEL: "true"
- MOLECULE: "CCOC(=O)C(C(=O)OCC)C1C=CCC2c3ccccc3COCC21 (stereo not drawn)"
  ANSWER_LABEL: "false"
- MOLECULE: "Nc1c(C(=O)O)nnc2cc(Cl)ccc12"
  ANSWER_LABEL: "false"
- MOLECULE: "CC(C)(C)OC(=O)NCC(=O)NC1c2ccsc2/C(=N/O)[C@H]1O (stereo partly drawn)"
  ANSWER_LABEL: "false"
- MOLECULE: "Cc1nc(N)nc(S)c1CCC(=O)O"
  ANSWER_LABEL: "false"
- MOLECULE: "Cc1cc2c(C)nn(Cc3ccc(Cl)cc3)c2c(C#N)c1C"
  ANSWER_LABEL: "false"
- MOLECULE: "Cc1n2nc(N)sc2n[n+]1CC(=O)c1ccccc1"
  ANSWER_LABEL: "false"
- MOLECULE: "COC(=O)C1=C(C(=O)OC)N(c2ccc(OC)cc2[N+](=O)[O-])C(c2ccc(C)cc2)=CC1c1ccc(OC)cc1OC (stereo not drawn)"
  ANSWER_LABEL: "false"
- MOLECULE: "COc1cccc2c1C(=O)c1ccc3cc(CO)cc(O)c3c1C2=O"
  ANSWER_LABEL: "true"
- MOLECULE: "O=CCC1CCCCC1"
  ANSWER_LABEL: "false"
- MOLECULE: "CN(C)CCNc1ccc([N+](=O)[O-])c2nc3ccccc3c(N)c12"
  ANSWER_LABEL: "true"
- MOLECULE: "CN(C)c1nc(N(C)C)nc(N(C)CN(C)c2ccccc2)n1"
  ANSWER_LABEL: "false"
- MOLECULE: "Cc1cc(Br)ccc1/N=N/C1C(=O)ON=C1c1ccccc1 (stereo not drawn)"
  ANSWER_LABEL: "false"
- MOLECULE: "C[Si]12OCCCN(CCO1)CCO2"
  ANSWER_LABEL: "false"
- MOLECULE: "COc1cc(OC)cc(C(=O)NC2=C(Cl)C(=O)c3ccccc3C2=O)c1"
  ANSWER_LABEL: "false"
- MOLECULE: "Cc1ccc(S(=O)(=O)Nn2c(S)c(C#N)c(-c3ccc(N(C)C)cc3)c(C#N)c2=O)cc1"
  ANSWER_LABEL: "false"
